measured_target: cytochrome P450 2C8-isoenzyme (Homo sapiens)
Construct: is assayed at 37° C. with human liver microsomes; from tissue; host or cells: human liver microsomes
Sequence (P10632 1-490): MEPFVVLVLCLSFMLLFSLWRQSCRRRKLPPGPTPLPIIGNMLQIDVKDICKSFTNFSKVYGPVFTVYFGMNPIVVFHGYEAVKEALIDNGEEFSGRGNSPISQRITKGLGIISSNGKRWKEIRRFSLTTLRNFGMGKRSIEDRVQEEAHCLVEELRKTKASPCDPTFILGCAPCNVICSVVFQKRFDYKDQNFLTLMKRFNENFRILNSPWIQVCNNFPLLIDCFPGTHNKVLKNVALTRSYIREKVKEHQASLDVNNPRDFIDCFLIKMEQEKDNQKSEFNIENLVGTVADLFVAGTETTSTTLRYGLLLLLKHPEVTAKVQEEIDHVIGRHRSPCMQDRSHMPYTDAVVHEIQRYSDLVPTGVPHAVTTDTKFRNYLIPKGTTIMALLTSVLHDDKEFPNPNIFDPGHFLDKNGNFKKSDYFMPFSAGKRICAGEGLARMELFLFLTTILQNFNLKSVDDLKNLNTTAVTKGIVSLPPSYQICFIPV
run_description: Inhibition of CYP-2C8 (amodiaquine deethylation, human liver microsomes)
Format: in vitro ADME
conditions: human liver microsomes 0.05 mg/mL, amodiaquine 1 μM, 37° C.
Give IC50 for every item shown.
One number for each entry, in µM.

Here are 5 compounds together with their reported answers.
Cc1cc(OCC(C)(C)C#N)cc(C)c1-c1cccc2c1CC[C@H]2Nc1cnc2c(c1)OCC2CC(=O)O (some centres unmarked): 9
Cc1cc(-c2nnn(C)n2)cc(C)c1-c1cccc2c1CC[C@H]2Nc1cnc2c(c1)OC[C@H]2CC(=O)O: 29
O=C(O)CC1COc2cc(N[C@@H]3CCc4c(-c5ccccc5C(F)(F)F)cccc43)cnc21 (some centres unmarked): 21
COc1cc(F)c(-c2cccc3c2CC[C@H]3Nc2cnc3c(c2)OCC3CC(=O)O)c(F)c1 (some centres unmarked): 27
N#CC1(c2ccccc2-c2cccc3c2CC[C@H]3Nc2cnc3c(c2)OCC3CC(=O)O)CC1 (some centres unmarked): 37

I need IC50 for every entry listed below, if you could help.
1. Cc1cc(C(=O)N(C)C)cc(C)c1-c1cccc2c1CC[C@H]2Nc1cnc2c(c1)OCC2CC(=O)O (some centres unmarked)
2. Cc1cc(OCCCS(C)(=O)=O)cc(C)c1-c1cccc2c1CC[C@H]2Oc1ccc2c(c1)OC[C@H]2CC(=O)O [2 (WO 2013/144098), reference compound]
3. Cc1cc(-c2ccc(=O)n(C)c2)cc(C)c1-c1cccc2c1CC[C@H]2Nc1cnc2c(c1)OCC2CC(=O)O (some centres unmarked)
4. CCc1cccc(CC)c1-c1cccc2c1CC[C@H]2Nc1cnc2c(c1)OCC2CC(=O)O (some centres unmarked)

[37, 19, 29, 9]

I need IC50 for every entry listed below, if you could help.
1. Cc1cc(-c2ccn(C)c(=O)c2)cc(C)c1-c1cccc2c1CC[C@H]2Nc1cnc2c(c1)OCC2CC(=O)O (some centres unmarked)
2. Cc1cc(-c2cc(=O)n(C)cn2)cc(C)c1-c1cccc2c1CC[C@H]2Nc1cnc2c(c1)OCC2CC(=O)O (some centres unmarked)

1: 12; 2: 21

Please look up its IC50: Cc1cc(-c2nnn(C)n2)cc(C)c1-c1ccc(F)c2c1CC[C@H]2Oc1ccc2c(c1)OC[C@H]2CC(=O)O [95 (WO 2013/144097), reference compound]
9
